Reference for the values: patent US20230219965A1

Would you mind telling me the reported half-life at 1 μM of each entry?
Protocol description: Liver microsomal metabolic stability, human liver microsomes (HLM)
Particulars: human, liver microsomes

Input: Given the molecule CC(C)n1ncc(Cl)c1-c1cc2n(n1)CCC(=O)N2Cc1ccc(-c2ncccc2OC2CC2)c(Cl)c1 , what is its reported half-life at 1 μM?
Output: < 25 min

Input: Would you kindly share the measured half-life at 1 μM for CC(C)n1cc(C(F)(F)F)nc1-c1ccc([C@H](C)N2C(=O)CCn3nc(-c4c(Cl)cnn4C(C)C)nc32)cc1 ?
Output: < 25 min

Input: Need half-life at 1 μM, item CC(C)n1cc(C(F)(F)F)nc1-c1ccc(C(N2CCCn3nc(-c4c(Cl)cnn4C(C)C)cc32)C(F)(F)F)cc1F (centres unmarked)
Output: < 25 min

Input: half-life at 1 μM for CCn1cc(C(F)(F)F)nc1-c1ccc(OC2CCCn3nc(-c4c(Cl)cnn4C(C)C)cc32)cc1 (centres unmarked) ?
Output: > 25 min

Input: Reported half-life at 1 μM, molecule CCn1cc(C(F)(F)F)nc1-c1ccc([C@H](C)N2C(=O)CCn3nc(-c4c(Cl)cnn4C(C)C)nc32)cc1 : ____
Output: < 25 min
